Entries and their GI50
system: SF-539; assay: NCI tumour cell line growth inhibition, 48 h
Activity calls are given as the source filed them. Rule as the data show it: active = GI50 up to about 1.1 µM and inactive = higher.

# count of solved cases: 3
* COC(=O)/C(=N\NC(=S)NN)C(C(=O)C(=O)Nc1ccccc1C(N)=O)c1nc2ccccc2nc1O (configuration not stated) | > 100 µM (inactive)
* CCOC(=O)CCC(NC(=O)c1ccc(OCc2nc3ccccc3n3cccc23)cc1)C(=O)OCC (configuration not stated) | 46.8 µM (inactive)
* CCN(CC)CCC(=O)/C=C/c1ccccc1 | 19.9 µM (inactive)

Next item in the queue.
Record CC12CCC3C(CCC4CC(OC(=O)Cc5ccc(N(CCCl)CCCl)cc5)CCC43C)C1CCC(=O)N2 (configuration not stated) , field GI50: 15.1 µM (inactive)

====

test system: SK-MEL-2; assay: NCI tumour cell line growth inhibition, 48 h
Activity calls are given as the source filed them. Cut-off read from the data, not from the text of the source: active = GI50 up to about 1.1 µM and inactive = higher.
Give your call using only these classes: 1 (active), -1 (inactive)

- OC[C@@H](O)[C@H](O)[C@@H](O)/C=N/Nc1ccc(Cl)nn1: -1
- O=C(/C=C/c1ccccc1)CCN1CCCCC1: -1

Q. Give the logged outcome of this assay for the following compound: O=C(Cc1nc2ccccc2s1)C(=O)Nc1ccc(Cl)cc1Cl
A. -1

Q. Give the logged outcome of this assay for the following compound: O=c1ccc(=O)c2c1c1[nH]c3ccccc3c1c1c(=O)c3ccccc3c(=O)c21
A. -1

Q. Give the logged outcome of this assay for the following compound: COc1ccc2nc3ccccc3c(NCCCCN(C)CCCl)c2c1
A. 1

Q. Give the logged outcome of this assay for the following compound: O=[N+]([O-])c1ccc(-c2csc(=[N+]3CCCCC3)s2)cc1
A. -1

Q. Give the logged outcome of this assay for the following compound: CC1N=C(c2ccccc2)OC1=O (centres undefined)
A. -1

Q. Give the logged outcome of this assay for the following compound: CCCC(=O)Nc1cc(/C=C/C(=O)N2C[C@H]3C[C@@]34C2=CC(=O)c2[nH]cc(C)c24)n(C)c1
A. 1

====

tested on: HCT-116; assay: NCI tumour cell line growth inhibition, 48 h
Activity calls are given as the source filed them. Rule as the data show it: active = GI50 up to about 1.1 µM and inactive = higher.
Give your call using only these classes: Yes for active, No for inactive

Reference set, count: 10
* CCCC(=O)OCC(COC(=O)CCC)OC(=O)CCC | No
* O=C1CC(CC(=O)c2ccc(Br)cc2)C(O)=C1C(=O)c1ccc(Br)cc1 (stereo not drawn) | No
* CS(=O)(=O)c1nc(-c2cc3c(c(S(C)(=O)=O)n2)CCC3)cc2c1CCC2 | No
* CCCC(=O)Nc1cc(/C=C/C(=O)N2C[C@H]3C[C@@]34C2=CC(=O)c2[nH]cc(C)c24)n(C)c1 | Yes
* COC(=O)/C=C(/C=C1/C(C#N)=C(N)N(c2ccc(Cl)cc2)C1(C)/C(=C\C(=O)OC)C(=O)OC)C(=O)OC (stereo not drawn) | No
* COc1cccc2c1OC1c3ccccc3OCC1C2 (stereo not drawn) | No
* CCCc1c(O)nc2ccccc2c1O | No
* COC1C2C=CC(C2)[C@H]1[N+](=O)[O-] (stereo partly drawn) | No
* CC[C@]12C=CCN3CCC4(c5cc(/N=N/c6ccccc6)c(OC)cc5N(C)[C@H]4[C@@](O)(C(=O)OC)[C@@H]1OC(C)=O)[C@@H]32 (stereo partly drawn) | No
* Cn1cccc1-c1ccc(-c2ccc(CO)[se]2)[se]1 | No

Q. Give the logged outcome of this assay for the following compound: CCCCCCCC1(N=[N+]=[N-])C(=O)c2ccccc2N(C)C1=O (stereo not drawn)
A. No

Q. Give the logged outcome of this assay for the following compound: CCN1CC2=C(N=c3s/c(=C\c4ccc(Cl)cc4)c(=O)n3C2c2ccc(Cl)cc2)/C(=C/c2ccc(Cl)cc2)C1 (stereo not drawn)
A. No

Q. Give the logged outcome of this assay for the following compound: CN(C)CCOC1(Cc2ccc(Cl)cc2Cl)CCC(C(C)(C)C)CC1 (stereo not drawn)
A. No

Q. Give the logged outcome of this assay for the following compound: Cc1[nH]c2ccccc2c1C1=NO/C(=N\O)C(c2c(C)[nH]c3ccccc23)C1 (stereo not drawn)
A. No

Q. Give the logged outcome of this assay for the following compound: CC(C)CC1c2[nH]c3ccccc3c2C[C@H]2C(=O)NC(CCC(=O)OC(C)(C)C)C(=O)N12 (stereo partly drawn)
A. No

Q. Give the logged outcome of this assay for the following compound: COC(=O)N/N=C(\C)CC(=O)Nc1cccc([N+](=O)[O-])c1
A. No

Q. Give the logged outcome of this assay for the following compound: NC(=O)NC(=O)c1cnccn1
A. No

Q. Give the logged outcome of this assay for the following compound: FC(F)(F)c1nc(Br)[nH]c1C(F)(F)F
A. No

Q. Give the logged outcome of this assay for the following compound: CCOC(=O)C1=C(NC(C)(C)C)OC/C1=N\NC(=O)Cc1ccccc1
A. No

Q. Give the logged outcome of this assay for the following compound: COC(=O)C1=C(C(=O)OC)C2(C)OC1C(=O)C21CC1 (stereo not drawn)
A. No

====

test system: BT-549; test: NCI tumour cell line growth inhibition, 48 h
Calls of active or inactive are those of the source. No stated cut-off is given here; in the data, active = GI50 up to about 1.1 µM and inactive = higher.
Measured parameter: GI50

# count of solved cases: 2
* O=C(O)c1ccccc1C(=O)Nc1cc2c(cc1Br)-c1ccccc1C2=O | > 100 µM (inactive)
* O=c1c2cnccc2cc2c3ccccc3ccn12 | 65.6 µM (inactive)

Next item in the queue.
Record O=C(O)CC(Sc1ccccc1)c1ccccc1 (stereo not drawn) , field GI50: > 100 µM (inactive)

====

system: SN12C; assay: NCI tumour cell line growth inhibition, 48 h
Active and inactive are the calls of the source. No stated cut-off is given here; in the data, active = GI50 up to about 1.1 µM and inactive = higher.
Entries and their GI50

# count of solved cases: 3
- CC(=O)NC1=C(C)C(=O)c2c(nc3n2CCC3OC(=O)c2ccccc2)C1=O (centres undefined): 1.79 µM (inactive)
- O=S1(=O)c2ccccc2N(O)C2=NCCN21: > 100 µM (inactive)
- C[C@@H]1C(=O)O[C@H]1[C@H](O)CO: > 100 µM (inactive)

Next item in the queue.
Record COc1ccc(C(=O)/C=C/c2ccc(OCCCOc3ccc(/C=C/C(=O)c4ccc(OC)cc4)cc3)cc2)cc1 , field GI50: > 100 µM (inactive)

====

test system: SF-295; experiment: NCI tumour cell line growth inhibition, 48 h
The source made the active and inactive calls. Rule as the data show it: active = GI50 up to about 1.1 µM and inactive = higher.
Give your call using only these classes: yes (1) for active, no (0) for inactive

Q. Give the logged outcome of this assay for the following compound: COc1cccc(-c2cc(O)c3ccccc3n2)c1
A. no (0)

Q. Give the logged outcome of this assay for the following compound: O=C(Nc1ccc(Cl)cc1)NS(=O)(=O)c1coc2cc(F)ccc2c1=O
A. no (0)

Q. Give the logged outcome of this assay for the following compound: CNC(=O)c1cccc2c(Nc3ccc(NS(C)(=O)=O)cc3OC)c3cccc(C)c3nc12
A. yes (1)

Q. Give the logged outcome of this assay for the following compound: CC[C@]12C=CCN3CCC4(c5cc(/N=N/c6ccccc6)c(OC)cc5N(C)[C@H]4[C@@](O)(C(=O)OC)[C@@H]1OC(C)=O)[C@@H]32 (stereo partly specified)
A. no (0)

Q. Give the logged outcome of this assay for the following compound: N#C/C(C(=S)NCc1ccccc1)=C(/N)N1CCCC1
A. no (0)

Q. Give the logged outcome of this assay for the following compound: C/C(COc1ccccc1)=N\NC(N)=S
A. no (0)

Q. Give the logged outcome of this assay for the following compound: COc1cc2c(cc1C)NC(=O)/C2=C\c1ccncc1
A. no (0)

====

test system: MOLT-4; test: NCI tumour cell line growth inhibition, 48 h
Activity calls are given as the source filed them. Cut-off read from the data, not from the text of the source: active = GI50 up to about 1.1 µM and inactive = higher.
Measured parameter: GI50

# count of solved cases: 6
• COC(=O)N[C@H](C(=O)O)C(C)O[Si](C)(C)C(C)(C)C (some centres undefined) = > 100 µM (inactive)
• CC(C)C(NCc1c2ccccc2[n+]([O-])c2ccccc12)C(=O)O (centres undefined) = 26.2 µM (inactive)
• CC1=NN(c2cccc(Cl)c2)C2(SCC(=O)N2c2nc3ccccc3s2)/C1=C\c1ccc(N(C)C)cc1 (centres undefined) = 48.5 µM (inactive)
• CC1=NC(=Cc2ccc(Cl)cc2)C(=O)N1n1c(-c2ccccc2)nc2ccccc2c1=O = 34.5 µM (inactive)
• COC(=O)/C(=N\NC(=S)NN)C(C(=O)C(=O)Nc1ccccc1C(N)=O)c1nc2ccccc2nc1O (centres undefined) = > 100 µM (inactive)
• CCOC(=O)c1nc2cc(Cl)ccc2[nH]c1=O = > 100 µM (inactive)

Record CCCCCNc1nonc1N , field GI50: > 100 µM (inactive)

Record COC(=O)C1=C(C(=O)OC)C2(C)OC1C(=O)C21CC1 (centres undefined) , field GI50: 19.5 µM (inactive)

Record CCOC(=O)Cn1c(C)nc2nn(Cc3ccccc3)cc2c1=O , field GI50: > 100 µM (inactive)

Record C=CCNC1=C2C[C@@H](C)C[C@@H](OC)[C@H](OC(=O)CCN)[C@H](C)/C=C(\C)[C@@H](OC(N)=O)[C@H](OC)/C=C\C=C(/C)C(=O)NC(=CC1=O)C2=O , field GI50: 3.86 µM (inactive)

Record CN(C)CCNc1ncnc2[nH]c(-c3ccc4ccccc4c3)nc12 , field GI50: > 100 µM (inactive)

Record CN(Cc1c2ccccc2cc2ccccc12)S(=O)(=O)c1ccc(-c2c3nc(c(-c4ccc(S(=O)(=O)N(C)Cc5c6ccccc6cc6ccccc56)cc4)c4ccc([nH]4)c(-c4ccc(S(=O)(=O)N(C)Cc5c6ccccc6cc6ccccc56)cc4)c4nc(c(-c5ccc(S(=O)(=O)N(C)Cc6c7ccccc7cc7ccccc67)cc5)c5ccc2[nH]5)C=C4)C=C3)cc1 , field GI50: > 100 µM (inactive)
